Tested on: HL-60(TB) leukemia
Assay: NCI tumour cell line growth inhibition, 48 h
observation.type: TGI (µM)
Form entry: value (µM) — number only.

For orientation, consider the following solved cases.
{"compound": "Cc1nnc2n1-c1ccccc1-c1[nH]c3ccccc3c1C2", "TGI / µM": 70.8}
{"compound": "COc1cc(/C=C/C(=O)c2ccc(Nc3nc(NCCO)nc(N4CCOCC4)n3)cc2)cc(OC)c1OC", "TGI / µM": 4.78}
{"compound": "CC(C)(C)COC1C2(OCCO2)C2CCC1(C)C2(C)C (stereo unspecified)", "TGI / µM": 44.2}
{"compound": "Cc1nc2ccccc2nc1NNc1ccccc1", "TGI / µM": 58.8}

Alright, here's another compound for you.
Recall and state the measured TGI for `NC(N)=NN=C(c1ccccc1)c1ccccc1` . 12.1

* * *

Property: TGI; scope: individual compounds
Tested on: DMS 273 small cell lung
Experiment: NCI tumour cell line growth inhibition, 48 h

{"compound": "CC1(C)CC(C)(C)CC(O)(C2(O)CC(C)(C)CC(C)(C)C2)C1", "TGI": "> 100 µM"}
{"compound": "NC(N)=NS(=O)(=O)c1ccc(NC(=O)c2cccc3c(=O)c4ccccc4[nH]c23)cc1", "TGI": "> 100 µM"}
{"compound": "O=c1[nH]cnc2c1sc(=S)n2-c1ccccc1", "TGI": "> 100 µM"}
{"compound": "CCC[CH2][Sn]1([CH2]CCC)[O]CC(CN2CCCCC2)[O]1 (stereo not given)", "TGI": "1.25 µM"}
{"compound": "Clc1ccc(-c2nnc3c4nnc(-c5ccc(Cl)cc5Cl)n4c4ccccc4n23)c(Cl)c1", "TGI": "> 100 µM"}

Recall and state the measured TGI for COC(c1ccccc1)C(c1ccccc1)N1CCOCC1 (stereo not given) . > 100 µM

Recall and state the measured TGI for `O=C(CCc1nnc2s/c(=C\c3ccccc3[N+](=O)[O-])c(=O)n12)Nc1cc(Cl)c(Cl)cc1Cl` . > 100 µM

Recall and state the measured TGI for `COc1ccc2[nH]c3c(C)c4ccncc4c(C)c3c2c1` . 1.95 µM

Recall and state the measured TGI for O=S1c2ccccc2N=C(c2cccc3ccccc23)CC1c1cccc2ccccc12 (stereo not given) . > 100 µM

Recall and state the measured TGI for `O=C(CC(=O)n1nc(-c2ccccc2)c(N=Nc2ccccc2Cl)c1-c1ccccc1)Nc1ccc(Cl)cc1` . > 100 µM

* * *

System: CCRF-CEM leukemia
Experiment: NCI tumour cell line growth inhibition, 48 h
observation.type: TGI

For orientation, consider the following solved cases.
{"compound": "COC(=O)C(Cc1c[nH]c2ccccc12)NP(=O)(O)OCC1OC(n2ccc(N)nc2=O)C(O)C1O (configuration not stated)", "observation.type": "TGI", "assay.value": "> 100 µM"}
{"compound": "C=C1CC2(CC(c3ccccc3OC)OC(c3ccccc3OC)C2)OC1=O (configuration not stated)", "observation.type": "TGI", "assay.value": "4.47 µM"}
{"compound": "CC(C)(C)COC1C2(OCCO2)C2CCC1(C)C2(C)C (configuration not stated)", "observation.type": "TGI", "assay.value": "37.8 µM"}
{"compound": "COc1ccc2cc(C#Cc3ccc(-n4c(/C=C/c5cc(OC)c(OC)c(OC)c5)nc5ccccc5c4=O)c(C)c3)ccc2c1", "observation.type": "TGI", "assay.value": "> 100 µM"}
{"compound": "COC1=CC(=O)N(C(=O)C2CSC(C(CO)NC(=O)c3csc(/C=N/O)n3)=N2)C1 (configuration not stated)", "observation.type": "TGI", "assay.value": "> 100 µM"}
{"compound": "Cc1ccc(-n2c(O)c(C=N)c(=O)n(-c3ccc(C)cc3)c2=O)cc1", "observation.type": "TGI", "assay.value": "> 100 µM"}

Alright, here's another compound for you.
Recall and state the measured TGI for `CC(C)C(=O)OCN(C)c1nc(N(C)COC(=O)C(C)C)nc(N(C)COC(=O)C(C)C)n1` . 70.5 µM
